The origin of these recorded values is the supplement of paper PMC4723716.

Test system: Plasmodium falciparum NF54 gametocytes
assay: viability index relative to DMSO control (fraction); higher = less gametocyte killing
conditionsUsed: gametocyte stage: Stage I viability index; 12.5 µM; incubation time: 72 h
Task for the reader: assign each of the following compounds its reported viability index.
Numbers only.

{"columns": ["compound", "viability index"],
 "data": [
  ["COc1cc(CNCCc2ccc(Cl)cc2)cc(OC)c1O", 0.049],
  ["CCCc1cc(O)c2c3c(c(=O)oc2c1)CN(C)CC3", 0.134],
  ["CCCCCCc1cc(O)c2c3c(c(=O)oc2c1)CCC(C)C3 (stereo not drawn)", 0.291],
  ["CCOc1c(Cl)cc(CNC(C)C(O)c2ccccc2)cc1OC (stereo not drawn)", 0.0917]
]}

Dear colleague, could you please provide viability index for the compounds listed below?
1. COc1ccc(CN2CCN(Cc3ccccc3)CC2)c(O)c1
2. Oc1ccc(C(=C(Cl)Cl)c2ccc(O)cc2)cc1
3. C=CC12CCN(CC1)C(C(O)c1ccnc3ccc(OC)cc13)C2 (stereo not drawn)
4. O=C(CCc1ccco1)NC1CCN(CC2(c3ccc(Cl)cc3)CCC2)CC1

1. 0.0656
2. 0.596
3. 1.08
4. 0.103
